# subject_of_test: Glutamate receptor ionotropic, NMDA 2D (Rattus norvegicus)
# protocol_details: Positive allosteric modulation of rat GluN2D expressed in Xenopus laevis oocytes assessed as potentiation of L-glutamate/glycine-induced current response at holding potential -60 mV by two-electrode voltage clamp method relative to L-glutamate/glycine
# Assay type: cell-based
# Parameters: concentration or dose not given beside the values
Returns True if the recorded Activity is greater than or equal to 70%, and False otherwise.

Problem: Say whether CC(C)CCC(C)c1ccc2cc(C(=O)O)ccc2c1 (racemic) shows Activity of 70% or more.
Result: True

Problem: # bool: Activity of `CC(C)CCCc1ccc2cc(C(=O)O)ccc2c1` >= 70%
Result: True

Problem: hey, is Activity for this one >= 70%? `C=C(CCC(C)C)c1ccc2cc(C(=O)O)ccc2c1`
Result: True

Problem: Reported Activity reaches at least 70% for `CCCCCc1ccc2cc(C(=O)O)ccc2c1` ?
Result: False

Problem: Assess whether reported Activity for `O=C(O)c1ccc2cc(CCCC3CCCC3)ccc2c1` sits at 70% or higher.
Result: False

---

# subject_of_test: Glutamate NMDA receptor; Grin1/Grin2c (Rattus norvegicus, UniProt P35439+Q00961)
# Sequence (Q00961 whole entry, other chains not shown): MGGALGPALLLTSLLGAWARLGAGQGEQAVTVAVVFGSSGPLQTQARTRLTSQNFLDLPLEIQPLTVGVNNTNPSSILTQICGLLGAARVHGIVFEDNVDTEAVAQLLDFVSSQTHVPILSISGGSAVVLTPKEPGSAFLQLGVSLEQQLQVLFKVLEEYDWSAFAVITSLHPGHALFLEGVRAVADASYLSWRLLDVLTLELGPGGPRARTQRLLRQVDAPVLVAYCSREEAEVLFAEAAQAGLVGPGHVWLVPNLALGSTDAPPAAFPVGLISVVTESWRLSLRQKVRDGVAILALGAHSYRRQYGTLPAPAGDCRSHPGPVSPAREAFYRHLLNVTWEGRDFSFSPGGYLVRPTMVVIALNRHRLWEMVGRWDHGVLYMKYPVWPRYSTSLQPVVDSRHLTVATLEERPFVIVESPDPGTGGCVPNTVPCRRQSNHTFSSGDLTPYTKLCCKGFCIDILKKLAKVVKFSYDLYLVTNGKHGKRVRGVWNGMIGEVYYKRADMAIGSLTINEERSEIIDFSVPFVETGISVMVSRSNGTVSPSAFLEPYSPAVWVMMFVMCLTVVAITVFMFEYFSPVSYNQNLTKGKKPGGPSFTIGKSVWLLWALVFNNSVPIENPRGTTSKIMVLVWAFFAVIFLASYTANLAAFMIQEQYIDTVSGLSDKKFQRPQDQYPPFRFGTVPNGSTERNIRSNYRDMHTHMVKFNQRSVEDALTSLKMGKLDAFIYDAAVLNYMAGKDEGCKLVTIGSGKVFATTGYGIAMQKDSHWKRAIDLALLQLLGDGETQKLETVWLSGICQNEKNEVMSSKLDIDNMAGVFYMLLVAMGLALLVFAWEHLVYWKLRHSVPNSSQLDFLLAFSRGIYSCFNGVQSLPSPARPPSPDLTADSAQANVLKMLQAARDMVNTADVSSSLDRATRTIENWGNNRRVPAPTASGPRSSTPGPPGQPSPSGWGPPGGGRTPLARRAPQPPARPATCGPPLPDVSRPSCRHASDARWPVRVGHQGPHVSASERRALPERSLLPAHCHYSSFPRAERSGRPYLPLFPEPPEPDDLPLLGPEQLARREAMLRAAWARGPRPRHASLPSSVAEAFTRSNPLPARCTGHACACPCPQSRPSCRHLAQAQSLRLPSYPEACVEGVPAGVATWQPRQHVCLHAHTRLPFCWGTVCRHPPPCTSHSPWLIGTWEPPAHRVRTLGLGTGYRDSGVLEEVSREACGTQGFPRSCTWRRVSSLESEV
# protocol_details: Negative allosteric modulation of rat GluN1/GluN2C expressed in Xenopus laevis oocytes assessed as inhibition of L-glutamate/glycine-induced current response at holding potential -60 mV by two-electrode voltage clamp method
observation_type: pIC50
Field pIC50 (float): negative decimal logarithm of the concentration in molar.

Problem: Query: pIC50; subject: `O=C(O)c1cc2cc(/C=C/c3cccc([N+](=O)[O-])c3)ccc2cc1O`
Result: 5.10

Problem: What value of pIC50 has been reported for the following molecule? `O=C(O)c1cc2cc(/C=C/c3ccccc3)ccc2cc1O`
Result: 4.86

Problem: Which pIC50 is listed for `O=C(O)c1cc2cc(/C=C/c3ccccc3[N+](=O)[O-])ccc2cc1O` ?
Result: 5.09

Problem: For `O=C(O)c1cc2cc(/C=C/c3ccc([N+](=O)[O-])cc3)ccc2cc1O` , what is its reported pIC50?
Result: 5.19

Problem: Endpoint output: pIC50 of `O=C(O)c1cc2cc(-c3ccccc3)ccc2cc1O` . Value?
Result: 4.38

---

# subject_of_test: Ionotropic glutamate receptor NMDA 1/2D (Rattus norvegicus, UniProt P35439+Q62645)
# Sequence (Q62645 whole entry, other chains not shown): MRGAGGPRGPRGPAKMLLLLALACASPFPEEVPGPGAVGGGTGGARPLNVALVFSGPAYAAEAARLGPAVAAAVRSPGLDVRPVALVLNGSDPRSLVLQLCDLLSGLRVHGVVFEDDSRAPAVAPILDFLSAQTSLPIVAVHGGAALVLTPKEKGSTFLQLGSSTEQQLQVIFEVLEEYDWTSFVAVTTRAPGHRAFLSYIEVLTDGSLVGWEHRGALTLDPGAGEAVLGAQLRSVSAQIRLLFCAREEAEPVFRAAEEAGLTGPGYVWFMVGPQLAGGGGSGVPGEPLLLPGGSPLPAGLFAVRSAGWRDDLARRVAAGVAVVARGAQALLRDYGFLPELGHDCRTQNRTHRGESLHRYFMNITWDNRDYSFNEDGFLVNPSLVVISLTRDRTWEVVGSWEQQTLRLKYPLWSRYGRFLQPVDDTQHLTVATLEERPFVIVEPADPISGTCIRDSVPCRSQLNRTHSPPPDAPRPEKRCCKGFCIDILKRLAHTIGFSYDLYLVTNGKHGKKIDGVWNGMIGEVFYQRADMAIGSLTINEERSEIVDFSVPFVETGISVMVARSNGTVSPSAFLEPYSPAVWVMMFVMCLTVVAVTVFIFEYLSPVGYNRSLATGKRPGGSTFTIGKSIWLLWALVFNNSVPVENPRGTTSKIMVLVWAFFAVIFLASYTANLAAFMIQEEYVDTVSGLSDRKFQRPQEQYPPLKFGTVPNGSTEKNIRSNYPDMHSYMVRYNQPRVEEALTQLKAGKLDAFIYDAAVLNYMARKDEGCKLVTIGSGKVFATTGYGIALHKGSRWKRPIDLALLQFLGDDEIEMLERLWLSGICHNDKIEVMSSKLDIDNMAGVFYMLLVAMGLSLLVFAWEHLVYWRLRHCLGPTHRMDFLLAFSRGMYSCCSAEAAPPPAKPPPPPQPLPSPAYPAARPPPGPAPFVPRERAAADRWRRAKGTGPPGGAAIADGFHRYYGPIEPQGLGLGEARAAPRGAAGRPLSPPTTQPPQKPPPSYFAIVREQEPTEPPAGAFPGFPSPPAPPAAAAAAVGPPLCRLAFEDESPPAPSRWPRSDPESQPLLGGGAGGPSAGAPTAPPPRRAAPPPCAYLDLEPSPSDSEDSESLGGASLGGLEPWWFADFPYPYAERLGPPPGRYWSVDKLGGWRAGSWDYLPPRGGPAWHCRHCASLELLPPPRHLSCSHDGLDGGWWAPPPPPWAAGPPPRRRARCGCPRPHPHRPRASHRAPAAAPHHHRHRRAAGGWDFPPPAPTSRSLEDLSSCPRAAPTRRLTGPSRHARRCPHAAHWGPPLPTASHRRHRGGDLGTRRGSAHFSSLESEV
# protocol_details: Negative allosteric modulation of rat GluN1/GluN2D expressed in Xenopus laevis oocytes assessed as inhibition of L-glutamate/glycine-induced current response at holding potential -60 mV by two-electrode voltage clamp method
observation_type: IC50 (nM)
Just the number in nM, nothing appended.

Problem: Endpoint output: IC50 of `O=C(O)c1cc2cc(/C=C/c3ccccc3)ccc2cc1O` . Value?
Result: 8600

Problem: Query: IC50; subject: `O=C(O)c1cc2cc(-c3ccccc3)ccc2cc1O`
Result: 49600

Problem: Entry `O=C(O)c1cc2cc(/C=C/c3cccc([N+](=O)[O-])c3)ccc2cc1O` : reported IC50 = ?
Result: 1400

Problem: What does the record list as IC50 for `O=C(O)c1cc2cc(/C=C/c3ccccc3[N+](=O)[O-])ccc2cc1O` ?
Result: 2900

Problem: Entry `O=C(O)c1cc2cc(/C=C/c3ccc([N+](=O)[O-])cc3)ccc2cc1O` : reported IC50 = ?
Result: 2900
